Tested on: K-562 leukemia
experiment description: NCI-60 one-dose screen, 48 h
condition: 10 µM unless noted
Experimental: Cells are grown in 96 well plates and exposed to the test compound for 48 hours. Compounds are tested at a single concentration, which is 10^-5 M for most compounds. The reported endpoint is percent growth (GI% or GIPRCNT), where numbers from 0 - 100% represent growth inhibition, and numbers from -100% - 0 represent cell death. For example, a value of 40 represents 60% growth inhibition. A value of 0 means no net growth occurred over the course of the experiment. […]
The panel holds about 83,000 compounds, 20% with a hit somewhere; the sample as a whole holds those more often. The source made the active and inactive calls. The calls were made as follows: active = growth percent below 10; inactive = the rest.
Respond only with the outcome that fits, drawn from Y (active), N (inactive)

| smiles entry | assigned category |
| --- | --- |
| Clc1ccc2oc3c(NCCCN4CCOCC4)c4ccccc4nc3c2c1 | Y |
| N[C@@H](Cc1cn(-c2ccnc3ccccc23)nn1)C(=O)O | N |
| CCOC(=O)c1sc(NCC(=O)Nc2cccc([N+](=O)[O-])c2)c(C(=O)OCC)c1C | Y |

q: Outcome? `CC(C)(C)Nc1nc2c(OCCc3ccccc3)cccn2c1-c1ccc(Cl)cc1`
a: Y

q: Outcome? `CS(=O)(=O)c1ccc(-n2cc(/C=C/C(=O)c3ccc(NC(=O)CO[N+](=O)[O-])cc3)c(-c3ccc(Cl)cc3)n2)cc1`
a: N

q: Outcome? `N[C@@H](Cc1cn(-c2c3ccccc3nc3ccccc23)nn1)C(=O)O`
a: N

---

System: CCRF-CEM leukemia
experiment description: NCI-60 one-dose screen, 48 h (100 = growth as untreated, 0 = no growth, -100 = all killed)
condition: 10 µM unless noted
Compounds without any hit were thinned out: in the full panel of roughly 83,000, 20% have a hit.
So basically, the class depends on measured growth, and the ranges are lo = under 10%, med = from 10% up to 60%, hi = 60% and over

| smiles entry | assigned category |
| --- | --- |
| COc1ccc(NC2=CC(=O)C(C)=C(C)C2=O)cc1 | hi |
| O=C1c2c(c3c4cc(Br)ccc4[nH]c3c3ccc4ccccc4c23)C(=O)N1CCO | hi |
| COc1cc(/C=C/C(=O)c2cc(OC)c(OC)c(OC)c2)ccc1OCc1ccccc1 | lo |
| Cn1ccnc1C(=O)/C=C/c1ccc(NC(=O)Nc2ccc(Cl)cc2)cc1 | hi |
| CN1CCc2c(sc3ncnc(N/N=C/c4ccc(Cl)c(Cl)c4)c23)C1 | lo |

q: Which bin should I file `COC(=O)c1ccc(NC(=S)N2CCc3ccc([N+](=O)[O-])cc3C2)cc1O` under?
a: hi

q: Which bin should I file `C=CCn1c(SCC(=O)c2ccccc2)nnc1-c1c[nH]c2ccccc12` under?
a: hi

q: Which bin should I file `c1ccc2c(NCCCN3CCOCC3)c3oc4ccccc4c3nc2c1` under?
a: med

q: Which bin should I file `COc1cc(/C=C/C(=O)c2ccc(F)cc2)ccc1Oc1nc(NCCO)nc(N2CCOCC2)n1` under?
a: lo

q: Which bin should I file `O=C(CCN1C(=O)/C(=C/c2ccccc2)SC1=S)N1CCOCC1` under?
a: med

---

Test system: CAKI-1 renal
experiment description: NCI-60 one-dose screen, 48 h (100 = growth as untreated, 0 = no growth, -100 = all killed)
condition: 10 µM unless noted
About 83,000 compounds went through this panel and 20% of them were active in at least one assay; those are over-represented in the sample as a whole.
measurement label: growth (%)
Write the value in % as a bare number.

| compound | unit | result number |
| --- | --- | --- |
| COc1ccc(/C=C2\SC(=Nc3cc(C)[nH]n3)NC2=O)cc1 | % | 83.4 |
| O=C1NC(=C(Cl)Cl)/C(=N/S(=O)(=O)N2CCCCC2CC2(C(F)(F)F)N=N2)N1 (stereo not given) | % | -65.4 |
| O=C(CSc1nc2sc3c(c2c(=O)n1-c1ccc(Cl)cc1)CCCC3)NNC(=O)Nc1cccc(C(F)(F)F)c1 | % | 13.7 |
| COc1cc2nc(-c3ccc(C(F)(F)F)cc3)cc(OCCCNCC3CCCO3)c2cc1OC (stereo not given) | % | 8.44 |
| c1ccc2c(NCCCn3ccnc3)c3oc4ccccc4c3nc2c1 | % | -8.49 |

q: Data request, read-out growth, for `COc1ccc(NC2=C(Cl)C(=O)C(C)=C(C)C2=O)cc1OC`
a: 89.4

q: Data request, read-out growth, for `CC(C)(C)Nc1nc2c(OCCc3ccccc3)cccn2c1-c1ccccc1Cl`
a: -6.8

q: Data request, read-out growth, for `Cc1c(Nc2nnc(SCC(=O)Nc3sc4c(c3C#N)CCCC4)s2)c(=O)n(-c2ccccc2)n1C`
a: 110

q: Data request, read-out growth, for `CCOC(=O)c1c(Nc2ccccc2)nn2c(N)c(C#N)c(-c3ccc(OC)cc3)nc12`
a: 52.8

q: Data request, read-out growth, for `N#Cc1ccc(/C=N/NC(=O)c2[nH]c3ccc(Br)cc3c2-c2ccccc2)s1`
a: 18.3
